Test system: MS2 coat protein
Experiment: apparent KD of MS2 coat protein; designed switch direction (-1 OFF switch, 1 ON switch): 1; higher = weaker reporter binding
Conditions: Eterna round: R95; input ligand: microRNA oligo, concentration not stated
Listed next: entries and their corresponding apparent KD of MS2 coat protein.
# number only, unit nM dropped from output

Record excerpt, results attached:
Task: Request - read-out apparent KD of MS2 coat protein | tested on MS2 coat protein | sequence GAUUAACAUGAGGAUCACCCAUGUCGUUUAAUGGGAGGAUAUACGUGGACCGUAGUCCGCGUAGAAGGCCUAAUUG [JL-ss1-3.22 janelle mod] (puzzle: Same State 1)
Result: 76.1

Task: Request - read-out apparent KD of MS2 coat protein | tested on MS2 coat protein | sequence AUUAAACAUGAGGAUCACCCAUGUAUUAUUAUGGGAGGAUAUGCGAAUUUAAUUAAUUAAGCAGAAGGCCUAAUUA [Mat - Same State 1 - D102] (puzzle: Same State 1)
Result: 98.3

Task: Request - read-out apparent KD of MS2 coat protein | tested on MS2 coat protein | sequence AUUUAACAAGCUUUUUGCUCGUCUUAUAAACAUGAGGAUCACCCAUGUAAUAGCGUGAGAGUAAUUUAAUAAAUAAU [JMF 84] (puzzle: Sensor for hsa-mir-208a)
Result: 51.1

Task: Request - read-out apparent KD of MS2 coat protein | tested on MS2 coat protein | sequence AAACCCAGUCUGUAGGAUAUGCACCUGCCGACAUGAGGAUCACCCAUGUACCCUAACAACAGCGUGCAGAAGGGCAGCAAUAAAA [Verilara] (puzzle: Same State 2)
Result: 22.9

Now let's try a different one.
Task: Request - read-out apparent KD of MS2 coat protein | tested on MS2 coat protein | sequence AGUCCAGCCUGAGCUGGACAAAAGCAUGUACAUGAGGAUCACCCAUGUUCAUGUACAAGCUUUUUGCUCGUCUUACG [salish99_208a_r3_078] (puzzle: Sensor for hsa-mir-208a)
Result: 17.1
